Target: 重组NT抗原(自产，130410) (human) (UniProt P16860)
Test: BLI, antibody captured on AMC sensor, antigen in solution
Hi there, I'd appreciate the recorded Kd for every entry that follows.
One number for each entry, in nM.

Answered examples (2):
binder	Kd (nM)
WT 1-8 (antibody, from another filing, V domains shown) VH: QVRLQESGPSQVKPAQTLSLTCAISGPSLTTYYVDWVRHTPGKPPEWLAQMTKDANAVHQPTVRSRLSITRDTSKSQVFLKLTGVTTEDTAVYYCVKGIIDWGPGLLVTVSS V domain: QAVLTQPSSVSRSLGQTVSITCSGSSDNVGPGDYINWFQLIPGSAPKTLIFAAYSRVRGVPDRFSGSRSGNTATLTINSLQAEDEADYYCGSPNSRNYVWGSGTRLTVLS	8.36
WT 1-9 (antibody, from another filing, V domains shown) VH: QVRLQESGPSQVKPAQTLSLTCAISGPSVTTYYIDWVRHTPGKPPEWLAQMTKDANAVHQPTLRSRLSITRDTSKSQVFLKLTGVTTEDTAVYYCVKGLIDWGPGLLVTVSS V domain: QAVLTQPSSVSRSLGQTVSITCSGSSDNVGPGDYVNWFQLIPGSAPKTLIFAAYSRLRGVPDRFSGSRSGNTATLTINSLQAEDEADYYCGSGNSRGGYVWGSGTRLTVLS	7.55

Kindly review the next binder as well.
*Q* For WT 1-2 (antibody, from another filing, V domains shown) VH: QVRLQESGPSQVKPAQTLSLTCAISGPSLTTYYIDWVRHTPGKPPEWLAQMTKDANAVHQPTLRSRLSITRDTSKSQVFLKLTGVTTEDTAVYYCVKGVIDWGPGLLVTVSS V domain: QAVLTQPSSVSRSLGQTVSITCSGSSDNVGPGDYLNWFQLIPGSAPKTLIFAASSRIRGVPDRFSGSRSGNTATLTINSLQAEDEADYYCGSPNSRNYVWGSGTRLTVLS , what is its reported Kd?
*A* 6.74
